tested_system: human MC3R (human, UniProt P41968 1-323)
Sequence (P41968 whole entry): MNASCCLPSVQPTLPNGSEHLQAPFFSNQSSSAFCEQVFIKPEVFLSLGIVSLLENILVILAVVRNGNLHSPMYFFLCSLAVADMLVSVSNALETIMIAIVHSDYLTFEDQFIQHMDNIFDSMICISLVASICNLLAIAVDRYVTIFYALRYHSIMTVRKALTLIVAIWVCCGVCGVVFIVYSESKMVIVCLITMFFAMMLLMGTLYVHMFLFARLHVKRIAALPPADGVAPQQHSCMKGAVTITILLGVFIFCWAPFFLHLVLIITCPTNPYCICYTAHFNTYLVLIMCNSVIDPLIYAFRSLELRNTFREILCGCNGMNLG
assay_procedure: cell-based or functional assay
Positions of bridges follow the written chain, without caps; N, C: chain ends. Non-standard residues stand in square brackets, D forms with d. dPhe(4-tBu) = CC(C)(C)c1ccc(C[C@@H](N)C(=O)O)cc1; dPhe(4-Br) = N[C@H](Cc1ccc(Br)cc1)C(=O)O; dTic = O=C(O)[C@H]1Cc2ccccc2CN1
attribute_measured: % max activation (%)

| binder | attribute_measured | result_number |
| --- | --- | --- |
| Ac-RC[dA]R[dPhe(4-Br)][dR][dW]C-NH2 (disulfide 2-8) [CTX-1252] | % max activation | 1.1 |
| Ac-RC[dA]R[dPhe(4-Br)]R[dTic]C-NH2 (disulfide 2-8) [CTX-1256] | % max activation | 17 |
| Ac-RC[dA]R[dPhe(4-tBu)]R[dW]C-NH2 (disulfide 2-8; SMILES CC(=O)N[C@@H](CCCNC(=N)N)C(=O)N[C@H]1CSSC[C@@H](C(N)=O)NC(=O)[C@@H](Cc2c[nH]c3ccccc23)NC(=O)[C@H](CCCNC(=N)N)NC(=O)[C@@H](Cc2ccc(C(C)(C)C)cc2)NC(=O)[C@H](CCCNC(=N)N)NC(=O)[C@@H](C)NC1=O) [CTX-1242] | % max activation | 2.8 |
| Ac-RC[dA]R[dF][dR]WC-NH2 (disulfide 2-8; SMILES CC(=O)N[C@@H](CCCNC(=N)N)C(=O)N[C@H]1CSSC[C@@H](C(N)=O)NC(=O)[C@H](Cc2c[nH]c3ccccc23)NC(=O)[C@@H](CCCNC(=N)N)NC(=O)[C@@H](Cc2ccccc2)NC(=O)[C@H](CCCNC(=N)N)NC(=O)[C@@H](C)NC1=O) [CTX-1282] | % max activation | 4.2 |
